Entries annotated with measured Emax
- system tested: Lysosomal acid glucosylceramidase (Homo sapiens)
- Sequence (whole entry): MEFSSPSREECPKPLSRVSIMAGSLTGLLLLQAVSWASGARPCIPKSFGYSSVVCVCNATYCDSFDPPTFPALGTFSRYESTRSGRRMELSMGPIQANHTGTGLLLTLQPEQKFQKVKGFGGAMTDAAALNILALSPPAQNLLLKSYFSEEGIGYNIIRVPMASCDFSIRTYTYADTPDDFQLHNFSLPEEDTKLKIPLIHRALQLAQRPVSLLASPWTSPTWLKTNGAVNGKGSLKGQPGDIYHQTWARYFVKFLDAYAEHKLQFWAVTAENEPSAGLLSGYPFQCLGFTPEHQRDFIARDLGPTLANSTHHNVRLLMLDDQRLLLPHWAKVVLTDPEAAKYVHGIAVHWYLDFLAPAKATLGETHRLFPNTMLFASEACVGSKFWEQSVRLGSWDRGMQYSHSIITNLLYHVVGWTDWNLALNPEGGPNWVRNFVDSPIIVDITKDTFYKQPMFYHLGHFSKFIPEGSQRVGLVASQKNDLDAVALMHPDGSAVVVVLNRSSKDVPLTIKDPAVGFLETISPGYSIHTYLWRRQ
- protocol text: Chaperone activity at GCase in wild-type human fibroblasts assessed as increase in GPN-induced reduction of calcium release using Fluo-8AM based fluorescence assay relative to control
measured attribute: Emax (%)

> print(dat)
                                   compound  measured.attribute  endpoint.result
1  CC(C)CC(C(=O)c1ccc(OCCN(C)C)cc1)c1ccccc1C(C)C (stereo not given)                Emax              148
2  C/C=C/c1ccccc1C(CCCC)C(=O)c1ccc(OCCN(C)C)cc1 (stereo not given)                Emax              109
3  CC/C(=C(\c1ccccc1)c1ccc(OCCN(C)C)cc1)c1ccccc1                Emax               28
4  CCCCC(C(=O)c1ccc(OCCN(C)C)cc1)c1ccccc1C(C)C (stereo not given)                Emax               56
5  CC(C)CC(C(=O)c1ccc(OCCN(C)C)cc1)c1ccccc1C1CC1 (racemic)                Emax               50

* * *

- system tested: UniProtKB P03372
- Sequence (P03372 whole entry): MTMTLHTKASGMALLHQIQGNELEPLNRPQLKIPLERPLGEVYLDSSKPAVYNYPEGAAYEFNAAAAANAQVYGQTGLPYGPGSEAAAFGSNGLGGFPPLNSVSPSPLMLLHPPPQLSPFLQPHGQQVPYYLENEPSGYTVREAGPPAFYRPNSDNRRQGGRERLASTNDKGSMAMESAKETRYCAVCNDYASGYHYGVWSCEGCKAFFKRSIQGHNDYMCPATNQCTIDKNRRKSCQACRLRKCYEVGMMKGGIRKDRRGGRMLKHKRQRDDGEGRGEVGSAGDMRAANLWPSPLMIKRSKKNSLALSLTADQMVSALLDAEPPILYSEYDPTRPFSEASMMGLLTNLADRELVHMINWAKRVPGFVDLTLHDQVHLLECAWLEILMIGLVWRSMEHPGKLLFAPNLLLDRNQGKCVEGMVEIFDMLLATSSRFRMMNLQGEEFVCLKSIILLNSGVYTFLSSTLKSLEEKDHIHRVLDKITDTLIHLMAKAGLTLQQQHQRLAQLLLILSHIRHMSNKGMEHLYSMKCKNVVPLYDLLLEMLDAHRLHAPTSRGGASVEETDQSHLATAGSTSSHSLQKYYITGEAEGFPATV
- protocol text: Agonist activity at estradiol receptor (unknown origin) at 10 uM relative to control
measured attribute: Activity (%)

> print(dat)
                                    compound  measured.attribute  endpoint.result
 1  CC(C)CC(C(=O)c1ccc(OCCN(C)C)cc1)c1ccccc1 (configuration not stated)            Activity               40
 2  CCCCCCC(C(=O)c1ccc(OCCN(C)C)cc1)c1ccccc1 (configuration not stated)            Activity                5
 3  CC/C(=C/c1ccc(OCCN(C)C)cc1)c1ccc(C#N)cc1            Activity               32
 4     CCCC/C(=C\c1ccc(OCCN(C)C)cc1)c1ccccc1            Activity               98
 5  CCCCC(C(=O)c1ccc(OCCN(C)C)cc1)c1ccccc1C(C)C (configuration not stated)            Activity               45
 6  CC(C)CC(C(=O)c1ccc(OCCN(C)C)cc1)c1ccccc1C(C)C (configuration not stated)            Activity               39
 7  CC(C)CCC(C(=O)c1ccc(OCCN(C)C)cc1)c1ccccc1 (configuration not stated)            Activity               35
 8   CC/C(=C/c1ccc(OCCN(C)C)cc1)c1ccc(Cl)cc1            Activity               70
 9  CC/C(=C/c1ccc(OCCN(C)C)cc1)c1ccc(C(N)=O)cc1            Activity               46
10       CC/C(=C\c1ccccc1)c1ccc(OCCN(C)C)cc1            Activity               43
11  CC(C)CC(C(=O)c1ccc(OCCN(C)C)cc1)c1ccccc1C1CC1 (racemic)            Activity                0
12    CC/C(=C/c1ccc(OCCN(C)C)cc1)c1ccc(N)cc1            Activity               25
13  CCC(Cc1ccccc1)c1ccc(OCCN(C)C)cc1 (configuration not stated)            Activity               75
14  C/C=C/c1ccccc1C(CCCC)C(=O)c1ccc(OCCN(C)C)cc1 (configuration not stated)            Activity               35
15  C=Cc1ccccc1C(CCCC)C(=O)c1ccc(OCCN(C)C)cc1 (configuration not stated)            Activity              100
16      CC/C(=C\c1ccc(OCCN(C)C)cc1)Cc1ccccc1            Activity               69
17  CCCC(CCC)(C(=O)c1ccc(OCCN(C)C)cc1)c1ccccc1            Activity               25
18       CC/C(=C/c1ccc(OCCN(C)C)cc1)c1ccccc1            Activity               35
19  CCC(Cc1ccc(OCCN(C)C)cc1)c1ccccc1 (configuration not stated)            Activity               43
20      CC/C(=C/c1ccc(OCCN(C)C)cc1)Cc1ccccc1            Activity               47
21    CC/C(=C/c1ccc(OCCN(C)C)cc1)c1ccc(F)cc1            Activity               46
22       CC/C(=C\c1ccc(OCCN(C)C)cc1)c1ccccc1            Activity               19
